TEST: Cmax in Sprague-Dawley rat at 2 mg/kg, iv
Assay type: ADME, organism-based
Parameters: route intravenous, dose 2 mg/kg
REPORTED CONDITIONS: in vivo
MEASURED PROPERTY: Cmax (ng/mL)
Answer in ng/mL, number only, no unit symbol.

Form: molecule = "COc1ccccc1N1CCN(CCCCn2cc(CCCC(=O)O)c3ccccc32)CC1" ; Cmax = 37.9

----------
STUDY TARGET: Alpha-1D adrenergic receptor (Homo sapiens, UniProt P25100)
Sequence (P25100 whole entry): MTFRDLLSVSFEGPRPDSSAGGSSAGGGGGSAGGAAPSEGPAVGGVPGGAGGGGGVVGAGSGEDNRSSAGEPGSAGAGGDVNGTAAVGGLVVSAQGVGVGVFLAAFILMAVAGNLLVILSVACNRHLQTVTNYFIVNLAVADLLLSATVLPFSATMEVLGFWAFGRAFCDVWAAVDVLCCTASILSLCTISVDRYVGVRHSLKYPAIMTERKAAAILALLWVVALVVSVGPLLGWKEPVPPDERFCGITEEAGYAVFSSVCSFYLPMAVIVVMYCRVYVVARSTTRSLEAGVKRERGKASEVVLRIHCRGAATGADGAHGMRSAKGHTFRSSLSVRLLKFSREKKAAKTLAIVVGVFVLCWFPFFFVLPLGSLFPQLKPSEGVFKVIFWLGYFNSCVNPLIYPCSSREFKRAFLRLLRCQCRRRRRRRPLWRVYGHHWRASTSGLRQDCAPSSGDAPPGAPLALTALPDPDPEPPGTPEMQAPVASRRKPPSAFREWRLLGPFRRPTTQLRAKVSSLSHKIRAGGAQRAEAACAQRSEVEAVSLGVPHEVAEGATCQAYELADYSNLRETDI
TEST: Antagonist activity at human alpha1D receptor transfected in HEK293 cells co-transfected with Galpha16 assessed as reduction in intracellular calcium release incubated for 40 mins by Fluo-4AM dye based fluorescence assay
// returns false unless IC50 is strictly below 200 nM, in which case true

[[record]]
record_smiles = "CCOc1ccccc1OCCN[C@H](C)Cc1ccc(OC)c(S(N)(=O)=O)c1"
answer_label = "true"


Criterion: IC50 strictly below 200 nM. Is it met by "COc1ccccc1N1CCN(CCCCCn2cc(CCCC(=O)O)c3ccccc32)CC1" ?
false

Criterion: IC50 strictly below 200 nM. Is it met by "COc1ccccc1N1CCN(CCCCn2cc(CCCC(=O)O)c3ccccc32)CC1" ?
true

Criterion: IC50 strictly below 200 nM. Is it met by "COc1ccccc1N1CCN(CCCn2cc(CCCC(=O)O)c3ccccc32)CC1" ?
true

Criterion: IC50 strictly below 200 nM. Is it met by "O=C(O)CCCc1cn(CCCCN2CCN(c3ccccc3Cl)CC2)c2ccccc12" ?
true

Criterion: IC50 strictly below 200 nM. Is it met by "O=C(O)CCCc1cn(CCCCCN2CCN(c3ccccc3Cl)CC2)c2ccccc12" ?
false

The measured values listed here are drawn from ChEMBL document CHEMBL4765451.
